system: SK-OV-3; format: cell-based; conditions: Homo sapiens; SK-OV-3; five dose
Reported property: GI50
Form entry: enter the amount, then its unit.

Smiles string | Observed measurement
CN(C)CCNc1nc2ccccc2c2c(=O)c3cc(Cl)ccc3sc12 | 1.68 µM
NCCNc1nc2ccccc2c2c(=O)c3cc(Cl)ccc3sc12 | 1.78 µM

Which measured GI50 value corresponds to "O=c1c2cc(Cl)ccc2sc2c(NCc3ccccc3)nc3ccccc3c12" ? 3.56 µM

Also "CCNc1nc2ccccc2c2c(=O)c3cc(Cl)ccc3sc12" ? 11.1 µM

Also "O=c1c2cc(Cl)ccc2sc2c(NCCCNCCO)nc3ccccc3c12" ? 1.68 µM

* * *

tested on: A549/ATCC; format: cell-based; settings: A549/ATCC; 10^−5 molar
Under this convention, 1.0 denotes Growth percent strictly below 90% and 0.0 denotes Growth percent at or above 90%.

Smiles string | Discrete label
CN(C)CCCNc1nc2ccccc2c2c(=O)c3cc(Cl)ccc3sc12 | 1.0

Does this compound meet the criterion Growth percent < 90%? "O=c1c2cc(Cl)ccc2sc2c(NCc3ccccc3)nc3ccccc3c12" 1.0

Also "O=c1c2cc(Cl)ccc2sc2c(NCc3ccc4c(c3)OCO4)nc3ccccc3c12" ? 0.0

Also "O=c1c2cc(Cl)ccc2sc2c(NCCCNCCO)nc3ccccc3c12" ? 1.0

Also "O=c1c2cc(Cl)ccc2sc2c(NC3CCCCC3)nc3ccccc3c12" ? 1.0

Also "O=c1c2cc(Cl)ccc2sc2c(NCCN3CCOCC3)nc3ccccc3c12" ? 0.0

Also "COc1ccc(CCNc2nc3ccccc3c3c(=O)c4cc(Cl)ccc4sc23)cc1" ? 0.0

* * *

Quick record of GI50 values for DU-145.
Write the value in nM as a bare number.

// known answers, use as guide
Smiles string | GI50 (nM)
NCCNc1nc2ccccc2c2c(=O)c3cc(Cl)ccc3sc12 | 1810
O=c1c2cc(Cl)ccc2sc2c(NCCCNCCO)nc3ccccc3c12 | 1760

Which measured GI50 value corresponds to "CN(C)CCNc1nc2ccccc2c2c(=O)c3cc(Cl)ccc3sc12" ? 1870

Also "O=c1c2cc(Cl)ccc2sc2c(NCc3ccccc3)nc3ccccc3c12" ? 5500

* * *

test system: 786-0; type: cell-based; conditions: 786-0; five dose
Reported property: TGI (µM)
Write the value in µM as a bare number.

// known answers, use as guide
Smiles string | TGI / µM
O=c1c2cc(Cl)ccc2sc2c(NCCCNCCO)nc3ccccc3c12 | 3.37
O=c1c2cc(Cl)ccc2sc2c(NCc3ccccc3)nc3ccccc3c12 | 48.70
CCNc1nc2ccccc2c2c(=O)c3cc(Cl)ccc3sc12 | 33.8
NCCNc1nc2ccccc2c2c(=O)c3cc(Cl)ccc3sc12 | 3.20

Consider the additional molecule presented here.
Which measured TGI value corresponds to "CN(C)CCNc1nc2ccccc2c2c(=O)c3cc(Cl)ccc3sc12" ? 3.45

* * *

Measured Growth percent, listed per entry.
tested on: SK-MEL-28; format: cell-based; conditions: SK-MEL-28; 10^−5 molar
Write the value in % as a bare number.

Compound | Reported property | Unit tag | Observed measurement
O=c1c2cc(Cl)ccc2sc2c(NC3CCCCC3)nc3ccccc3c12 [Compound N21] | Growth percent | % | 101.79

Which measured Growth percent value corresponds to O=c1c2cc(Cl)ccc2sc2c(NCCc3ccccc3)nc3ccccc3c12 [Compound N30] ? 98.94

Also COc1ccc(CCNc2nc3ccccc3c3c(=O)c4cc(Cl)ccc4sc23)cc1 [Compound N31] ? 99.41

Each recorded value in this set is attributed to patent US8927717B1.
